Measured IC50 by item
- Tested on: Xanthomonas oryzae pv. oryzae strain Xoo28
- assay conditions: Xoo Xoo28; rich medium, 24 h, purified peptides

substance	IC50 (mg/L)
Ac-WKLLKKLLKKLKKLLKKL-NH2 [pepC]	12.5
Ac-WKLKLKLKLKLKLKLKLK-NH2 [pepE]	7.3
Ac-WKKLKKLLKKLKKLLKKL-NH2 [pepD]	8.0

----------
- Tested on: Staphylococcus aureus BCRC 10777
Non-standard residues stand in square brackets, D forms with d. Residues, ends and D or L forms follow the SMILES beside them. Orn = NCCC[C@H](N)C(=O)O
reported metric: MIC (µg/mL)

compound	reading
CC(=O)N[C@@H](Cc1c[nH]c2ccccc12)C(=O)N[C@@H](CCCN)C(=O)N[C@@H](CCCN)C(=O)N[C@@H](CC(C)C)C(=O)N[C@@H](CCCN)C(=O)N[C@@H](CCCN)C(=O)N[C@@H](CC(C)C)C(=O)N[C@@H](CC(C)C)C(=O)N[C@@H](CCCN)C(=O)N[C@@H](CCCN)C(=O)N[C@@H](CC(C)C)C(=O)N[C@@H](CCCN)C(=O)N[C@@H](CCCN)C(=O)N[C@@H](CC(C)C)C(N)=O [pepO2, Ac-WOOLOOLLOOLOOL-NH2] (Ac-W[Orn][Orn]L[Orn][Orn]LL[Orn][Orn]L[Orn][Orn]L-NH2)	32
